inhibition for assorted compounds
target_of_assay: Toll-like receptor 4 (Homo sapiens)
protocol_notes: inhibitors of human TLR4-MyD88 binding (AID 811)
assay_context: Cell-based TLR4-MyD88 binding inhibition assay; at 10 µM; stronger effect = higher value
The campaign covered roughly 16,000 compounds. About 10 (0.06%) were called active. The sample as a whole holds a higher share of actives than the screen did.
Supply the numeric figure in %, leaving out any unit text.

Sample records with inhibition:
> print(dat)
                             compound  reported.endpoint  quantitative.readout
1       CN(C)C(=O)Nc1ccc(C(C)(C)C)cc1         inhibition                 -8.78
2  Cc1nn(C)c(C)c1Sc1nccc(-c2cccnc2)n1         inhibition                 -8.01

## Input Entry N#Cc1c(C(F)(F)F)cc(-c2cccs2)nc1N1CCCCC1 has what inhibition?
## Output -4.83

## Input // inhibition lookup, key: CCCN(CCC)S(=O)(=O)c1ccc(C(=O)O/N=C(\C)c2ccccc2O)cc1
## Output 0.96

## Input inhibition for CCOC(=O)CNC(=O)c1ccc(-c2cccc([N+](=O)[O-])c2)o1 ?
## Output 2.51

## Input Any idea what its inhibition is? The compound is N#CCCN(CCc1ccccn1)S(=O)(=O)c1ccc2c(c1)CCO2
## Output 3.85

## Input Please report the recorded inhibition for O=C(O)CC1(CC(=O)NCc2ccco2)CCCCC1 .
## Output -10.3

## Input Dear colleague, I am looking for the recorded inhibition of the following compound: NC(=O)c1c(C(F)(F)F)cc(C(F)(F)F)cc1C(F)(F)F
## Output -6.47

## Input Fill in: inhibition of Oc1[nH]c2ccc(F)cc2c1N=NC(=S)NC1CC2C=CC1C2 (stereo unspecified) is ___
## Output -1.4

## Input For CSc1sc(C(=O)Nc2cccc(C(F)(F)F)c2)cc1S(=O)(=O)C(C)C , what is its reported inhibition?
## Output 0

## Input // query inhibition value for entry O=C(N/N=C/c1ccc(Cl)cc1Cl)/C(=C/c1cccs1)NC(=O)c1ccccc1
## Output -7.21

Source listed as PubChem BioAssay AID811.
